- Test system: Plasmodium falciparum
- ASSAY PROTOCOL: Inhibition of Plasmodium falciparum protein farnesyltransferase at 50 nM by scintillation proximity assay
VALUE TYPE: inhibition (%)

Sample records with inhibition:
Cn1cncc1CN1CC(N(CCOc2cccc3c2OCCO3)S(=O)(=O)c2ccccn2)Cc2cc(C#N)ccc21 (centres undefined) | 88
Cn1cnc(S(=O)(=O)N(CCCCCC(N)=O)C2Cc3cc(C#N)ccc3N(Cc3cncn3C)C2)c1 (centres undefined) | 98
Cn1cnc(S(=O)(=O)N(Cc2ccc3nonc3c2)C2Cc3cc(C#N)ccc3N(Cc3cncn3C)C2)c1 (centres undefined) | 99
Cc1c(S(=O)(=O)N(Cc2ccc(S(C)(=O)=O)cc2)C2Cc3cc(C#N)ccc3N(Cc3cncn3C)C2)ncn1C (centres undefined) | 92
Cn1cncc1CN1CC(N(CC(=O)NC(C)(C)C)S(=O)(=O)c2c[nH]cn2)Cc2cc(C#N)ccc21 (centres undefined) | 15
COC(=O)N1CCC(CN(C2Cc3cc(C#N)ccc3N(Cc3cncn3C)C2)S(=O)(=O)c2ccc3c(c2)OCCCO3)CC1 (centres undefined) | 99
Cn1cnc(S(=O)(=O)N(CC(=O)NC(C)(C)C)C2Cc3cc(C(=O)O)ccc3N(Cc3cncn3C)C2)c1 (centres undefined) | 80

a = Cn1cnc(S(=O)(=O)N(CCc2ccccc2F)C2Cc3cc(C#N)ccc3N(Cc3cncn3C)C2)c1 (centres undefined)
b = Cn1cnc(S(=O)(=O)N(CCCN)C2Cc3cc(C#N)ccc3N(Cc3cncn3C)C2)c1 (centres undefined)
Larger number for inhibition: a , or b ? Answer = label. a

Data credit: ChEMBL document CHEMBL1148785
